Experiment: Hepatocyte stability, balb/c mouse
Format: in vitro ADME
Conditions: BALB/c, mouse, hepatocytes, 0.5 million cells/ml, read-out: CLint (L/hr/kg) (converted)
Structures can show the parent of a compound that is named as a salt.
Exercise: for every item that follows, state its recorded CLint scaled at 2 μM.
Answers are plain numbers, in L/h/kg.

Examples with answers:
- CNS(=O)(=O)Nc1cccc(Cc2c(CN3CCNCC3)c3cc(Cl)c(OC(=O)N(C)C)cc3oc2=O)c1Cl [Compound 256, hydrochloride]: 4.98
- CNS(=O)(=O)Nc1cccc(Cc2c(CN(C)C)c3ccc(OC(=O)N(C)C)cc3oc2=O)c1Cl: 5.23
- CCN(C)Cc1c(Cc2cccc(NS(=O)(=O)NC)c2F)c(=O)oc2cc(OC(=O)N(C)C)c(F)cc12: 6.57
- CNS(=O)(=O)Nc1cccc(Cc2c(CN3CCNCC3)c3ccc(OC(=O)N(C)C)cc3oc2=O)c1Cl [Compound 246, hydrochloride]: 3.62
- CCS(=O)(=O)Nc1cccc(Cc2c(CN3CCNCC3)c3cc(Cl)c(OC(=O)N(C)C)cc3oc2=O)c1Cl [Compound 257, hydrochloride]: 4.78

Request: Using the record for CCN(C)Cc1c(Cc2cccc(NS(=O)(=O)NC)c2Cl)c(=O)oc2cc(OC(=O)N(C)C)ccc12 , state its measured CLint scaled at 2 μM.
Response: 7.54

----------
Test system: phospho-ERK in A549 (KRAS G12S) cells
Test: Cell-based pERK (pERK:tERK) in A549 cells
Conditions: Homo sapiens, A549, 2 h, read-out: A549-pERK (10 nM, 2 h)
Counter-ions that a name gives are not always drawn.
Labelling: activity at 0.01 µM reported below 40% becomes Fulfilled; at or above becomes Not fulfilled.

Check out these entries, answers already filled in.
- CCN(C)Cc1c(Cc2cccc(NS(=O)(=O)NC)c2F)c(=O)oc2cc(OC(=O)N(C)C)c(F)cc12 [Compound 238]: Not fulfilled
- CCS(=O)(=O)Nc1cccc(Cc2c(CN3CCNCC3)c3cc(F)c(OC(=O)N(C)C)cc3oc2=O)c1Cl [Compound 255]: Fulfilled
- CCS(=O)(=O)Nc1cccc(Cc2c(CN(C)CC(F)F)c3ccc(OC(=O)N(C)C)cc3oc2=O)c1F [Compound 243]: Not fulfilled

Request: is_below(activity at 0.01 µM, 40%) for CNS(=O)(=O)Nc1cccc(Cc2c(CN(C)C)c3c(F)cc(OC(=O)N(C)C)cc3oc2=O)c1F [Compound 244] ?
Response: Not fulfilled

Request: API: query returns whether the compound falls strictly under 40% in activity at 0.01 µM. Query: CNS(=O)(=O)Nc1cccc(Cc2c(CN(C)CCF)c3ccc(OC(=O)N(C)C)cc3oc2=O)c1F [Compound 240]
Response: Not fulfilled

Request: is_below(activity at 0.01 µM, 40%) for CNS(=O)(=O)Nc1cccc(Cc2c(CN(C)CC(F)F)c3ccc(OC(=O)N(C)C)cc3oc2=O)c1F [Compound 242] ?
Response: Not fulfilled

Request: Please state whether activity at 0.01 µM is below 40% for CNS(=O)(=O)Nc1cccc(Cc2c(CN3CCNCC3)c3cc(F)c(OC(=O)N(C)C)cc3oc2=O)c1Cl [Compound 254]
Response: Fulfilled

Request: Dear reviewer, please state whether CNS(=O)(=O)Nc1cccc(Cc2c(CN3CCNCC3)c3ccc(OC(=O)N(C)C)cc3oc2=O)c1Cl [Compound 246, hydrochloride] has activity at 0.01 µM strictly beneath 40%.
Response: Fulfilled

The origin of these recorded values is patent US20250179057A1.
